The values you see were collected from ChEMBL document CHEMBL4428060.

Target: D(3) dopamine receptor (Homo sapiens, UniProt P35462)
Sequence (P35462 whole entry): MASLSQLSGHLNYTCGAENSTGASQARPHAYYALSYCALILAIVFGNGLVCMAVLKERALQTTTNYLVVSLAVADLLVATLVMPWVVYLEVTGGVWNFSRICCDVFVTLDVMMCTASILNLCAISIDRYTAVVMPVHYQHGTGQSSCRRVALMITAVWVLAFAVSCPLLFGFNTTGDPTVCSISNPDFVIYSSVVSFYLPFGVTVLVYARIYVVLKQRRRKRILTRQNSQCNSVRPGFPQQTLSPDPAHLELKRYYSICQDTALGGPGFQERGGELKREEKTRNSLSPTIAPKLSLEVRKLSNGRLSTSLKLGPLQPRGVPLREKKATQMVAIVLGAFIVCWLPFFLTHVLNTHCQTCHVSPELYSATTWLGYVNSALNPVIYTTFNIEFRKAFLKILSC
Assay: Agonist activity at human dopamine D3 receptor expressed in CHO cells assessed as stimulation of mitogenesis incubated for 16 hrs in presence of [3H]thymidine by scintillation spectrometric analysis
readoutLabel: pEC50
Lab note — pEC50 values are minus log10 of concentrations in M.

INSERT INTO measurements (querysmiles, experimentalvalue) VALUES
  ('CCc1cccc(N2CCNCC2)c1Cl', 7.75),
  ('CCCCN1CCN(c2cccc(CC)c2Cl)CC1', 6.23);

Consider the record given below.
Prompt line: Which pEC50 reading was recorded for the molecule CCc1cccc(N2CCN(C)CC2)c1Cl ?
Response line: 6.15
